B1: STX11 (parent)
chain: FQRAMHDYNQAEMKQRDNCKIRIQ

- Variants of: B1
- procedure details: protein stability index of a GFP-peptide fusion (GPS, HEK-293T) (PSI 1-6); higher = more stable;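 note: lentivirally expressed fusions sorted by FACS into six bins by GFP to DsRed ratio, PSI derived from sequencing read proportions per bin multiplied by bin number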
- experimental conditions: c terminus: a fixed tail appended
metric name: protein stability index
The response must contain the number and no unit.

Examples with answers:
sequence variant	protein stability index
N9A	2.47
K20A	2.32
C19Q	2.77
A4T	2.69
N18F	2.36
R16V	2.63
I23H	2.8
K14C	3.08

Report measured protein stability index; entry is `Y8I`
3.08

Return value of protein stability index for input `A11S` , no commentary.
2.75

Could you please provide reported protein stability index for `N18D` ? Thanks!
2.88
